biological target: HLA-A*68:02; assay: IEDB peptide-MHC binding, cellular MHC/competitive/fluorescence; bounds were set here for any values at or beyond the usual limits of such assays; conditions: source organism: Vaccinia virus WR

sequence string: DTDIVNNFIT
readout relation: =
IC50, µM: 7.68
//
sequence string: ILSEKRKDTI
readout relation: ≥
IC50, µM: 70
//
sequence string: WIKDIMTST
readout relation: =
IC50, µM: 9.48
//
sequence string: YVILKDPRIA
readout relation: =
IC50, µM: 19
//
sequence string: GALYLGHSA
readout relation: =
IC50, µM: 12.8
//
sequence string: YIKDLKHAT
readout relation: ≥
IC50, µM: 70
//
sequence string: SLETVKMGA
readout relation: ≥
IC50, µM: 70
//
sequence string: YLSKEDRIIT
readout relation: =
IC50, µM: 21.5
//
sequence string: IMEIVSHLRA
readout relation: =
IC50, µM: 19.7
//
sequence string: VTLNRIKIA
readout relation: =
IC50, µM: 26.3
//
sequence string: ITLILSNKLL
readout relation: =
IC50, µM: 6.49

The measurements presented in this section are drawn from the Immune Epitope Database (IEDB).
